Let's look at some pIC50 data for Lysine-specific demethylase 3A (Homo sapiens) that I collected from the literature.
# STUDY TARGET: Lysine-specific demethylase 3A (Homo sapiens)
# Sequence (Q9Y4C1 whole entry): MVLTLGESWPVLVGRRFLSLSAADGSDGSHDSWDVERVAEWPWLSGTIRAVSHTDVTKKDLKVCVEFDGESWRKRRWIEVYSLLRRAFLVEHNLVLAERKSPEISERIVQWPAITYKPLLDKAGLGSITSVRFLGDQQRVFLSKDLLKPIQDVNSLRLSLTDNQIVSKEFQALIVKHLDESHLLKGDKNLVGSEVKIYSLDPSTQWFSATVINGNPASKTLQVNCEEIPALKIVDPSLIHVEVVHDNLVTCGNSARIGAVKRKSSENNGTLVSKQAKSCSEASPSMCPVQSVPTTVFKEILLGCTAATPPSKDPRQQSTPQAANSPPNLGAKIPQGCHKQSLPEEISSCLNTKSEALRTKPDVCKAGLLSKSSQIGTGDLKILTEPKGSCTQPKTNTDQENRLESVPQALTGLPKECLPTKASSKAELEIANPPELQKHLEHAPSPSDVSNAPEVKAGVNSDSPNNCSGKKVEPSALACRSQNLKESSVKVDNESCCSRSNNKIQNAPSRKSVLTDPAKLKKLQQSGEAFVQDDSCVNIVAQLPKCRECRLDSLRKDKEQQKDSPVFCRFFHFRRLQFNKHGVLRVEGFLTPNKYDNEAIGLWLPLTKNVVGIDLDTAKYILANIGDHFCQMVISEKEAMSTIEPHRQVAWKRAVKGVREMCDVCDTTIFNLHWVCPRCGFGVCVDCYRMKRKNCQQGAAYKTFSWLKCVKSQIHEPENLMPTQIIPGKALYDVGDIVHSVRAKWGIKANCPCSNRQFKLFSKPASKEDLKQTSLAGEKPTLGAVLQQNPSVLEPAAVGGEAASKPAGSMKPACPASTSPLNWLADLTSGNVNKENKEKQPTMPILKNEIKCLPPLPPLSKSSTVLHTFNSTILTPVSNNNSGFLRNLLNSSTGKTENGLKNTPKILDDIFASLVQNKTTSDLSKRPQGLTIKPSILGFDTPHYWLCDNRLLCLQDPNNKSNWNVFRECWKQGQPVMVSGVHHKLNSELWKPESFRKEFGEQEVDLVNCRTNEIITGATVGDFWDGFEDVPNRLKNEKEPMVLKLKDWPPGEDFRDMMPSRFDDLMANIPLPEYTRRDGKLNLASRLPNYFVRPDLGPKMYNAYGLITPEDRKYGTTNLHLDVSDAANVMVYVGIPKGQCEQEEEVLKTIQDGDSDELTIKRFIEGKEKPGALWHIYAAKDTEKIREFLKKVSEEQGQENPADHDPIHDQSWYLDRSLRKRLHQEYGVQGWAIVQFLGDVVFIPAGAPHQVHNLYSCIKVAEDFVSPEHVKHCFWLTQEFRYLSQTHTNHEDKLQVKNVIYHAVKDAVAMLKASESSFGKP
pIC50: −log10 of the molar value.
MEASUREMENT TYPE: pIC50

1. CN(c1ccccc1)c1ccc2c(c1)CCC[C@H]2CNc1cnccc1C(=O)O; < 5.40
2. NNc1nccc(C(=O)O)n1; 4.37
3. CCOC(=O)CCNc1cc(N2CCc3ccccc3CC2)nc(-c2ccccn2)n1; 5.07
4. CCCCN(C)CCCCC(=O)N(O)CCC(=O)O; < 4.00
5. CCCCN(C)CCN(CC)C(=O)CNCc1cc(C(=O)O)ccn1; < 4.30
6. CCCCCN(C)CCCCC(=O)N(O)CCC(=O)O; < 4.00
